# TARGET OR SYSTEM: T1, SNAP tagged-CXC4 receptor labeled with terbium (Tag-lite CXCR4 cells, HEK293) (UniProt P61073 1-352, SNAP tag labeled with terbium fluorescent dye)
# T1 construct: whole, on cells; Bought frozen cells (PerkinElmer-CisBio), HEK293 transiently expressing the receptor; also called terbium labeled CXCR receptor
# T1 sequence (P61073 whole entry): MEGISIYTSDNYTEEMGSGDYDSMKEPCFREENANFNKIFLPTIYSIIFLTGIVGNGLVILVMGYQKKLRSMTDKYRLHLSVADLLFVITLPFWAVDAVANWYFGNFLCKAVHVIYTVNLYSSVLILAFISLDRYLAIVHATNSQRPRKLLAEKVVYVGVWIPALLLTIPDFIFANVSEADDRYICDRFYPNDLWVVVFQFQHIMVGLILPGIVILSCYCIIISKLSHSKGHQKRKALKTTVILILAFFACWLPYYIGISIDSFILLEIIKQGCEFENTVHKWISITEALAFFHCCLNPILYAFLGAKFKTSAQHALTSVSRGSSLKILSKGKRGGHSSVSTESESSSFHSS
# ASSAY REMARKS: HTRF competition on Tag-lite CXCR4 HEK293 cells; competitor labelled CXCL12
Square brackets hold non-standard residues; d marks the D form. Ends that are not written are not given here.
ATTRIBUTE MEASURED: Percent Inhibition of CXCR4/CXCL12 Binding (400 nM peptide)

LERYHHS[dA]RSSLRGYTK [SEQ ID NO: 81]	81%
LRRYHHSVRSSLRPYSK [SEQ ID NO: 72]	6%
LDRYHHS[dA]RSSLRPYTK [SEQ ID NO: 8]	86%
LERFHHSVRSSLRPYTK [SEQ ID NO: 54]	79%
LERYHHS[dA]RTSLRPYTK [SEQ ID NO: 76]	75%
LRRYQHSVRSSLRPYTK [SEQ ID NO: 47]	5%
LERYHHSVRSSLR [SEQ ID NO: 21]	20%
